- TARGET: human NHE-1 (Homo sapiens)
- Sequence (P19634 whole entry): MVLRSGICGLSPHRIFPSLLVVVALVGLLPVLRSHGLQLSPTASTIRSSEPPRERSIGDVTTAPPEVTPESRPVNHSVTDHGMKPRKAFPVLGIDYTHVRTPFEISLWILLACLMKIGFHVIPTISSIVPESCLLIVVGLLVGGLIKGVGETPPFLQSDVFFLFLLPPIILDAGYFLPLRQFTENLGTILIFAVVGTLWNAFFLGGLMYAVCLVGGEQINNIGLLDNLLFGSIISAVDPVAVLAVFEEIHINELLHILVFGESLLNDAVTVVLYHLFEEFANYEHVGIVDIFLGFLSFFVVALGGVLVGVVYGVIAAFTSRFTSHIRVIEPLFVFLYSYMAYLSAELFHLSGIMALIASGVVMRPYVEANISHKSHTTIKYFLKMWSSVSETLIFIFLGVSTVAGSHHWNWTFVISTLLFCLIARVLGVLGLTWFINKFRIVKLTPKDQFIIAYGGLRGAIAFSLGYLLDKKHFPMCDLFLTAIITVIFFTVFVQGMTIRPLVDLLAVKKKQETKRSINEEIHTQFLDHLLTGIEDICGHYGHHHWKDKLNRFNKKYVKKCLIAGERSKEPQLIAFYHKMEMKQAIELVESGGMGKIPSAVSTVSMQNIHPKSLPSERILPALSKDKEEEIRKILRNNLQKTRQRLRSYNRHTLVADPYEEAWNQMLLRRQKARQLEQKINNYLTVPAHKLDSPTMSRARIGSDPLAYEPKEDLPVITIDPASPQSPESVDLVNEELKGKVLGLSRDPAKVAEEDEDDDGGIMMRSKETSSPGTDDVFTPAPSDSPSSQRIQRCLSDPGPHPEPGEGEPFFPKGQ
- ASSAY EXPLANATION: FLIPR assay of pHi recovery in transfected LAP-1 cell lines expressing human NHE-1
- MEASUREMENT PARAMETERS: transfected cells expressing human NHE-1, read-out: NHE1 inhibition IC50
MEASUREMENT KIND: IC50

NC(N)=NC(=O)C[C@H]1c2cc(C(F)(F)F)ccc2C(=O)N1CC(F)(F)F	0.3 nM
